Target: T1, Pep6
T1 peptide: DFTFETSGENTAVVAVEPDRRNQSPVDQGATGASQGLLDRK
Assay: ELISA
Listing of recorded EC50 by entry.

binder: antibody 1610 (antibody, V domains shown) VH: QVQLHQPGTSLVKPGASVKLSCKASGYNFSSYYMHWVKQRPGQGLEWIGTIHPSDSTTNCNQKFKGKATLTVDKSSRTAYMQLNSLTFEDSAVYYCANFVYWGQGTSVTVSS VL: DIVITQDELSNPVTSGDSVSISCRSSKSLLYKDGKTYLNWFLQRPGQSPQLLIYVVSTRASGVSDRFSGSGSGTDFTLEISRVKAEDVGVYYCQQLVEYPYTFGGGTKLEIK
EC50 [ng/mL]: 12.3
--
binder: antibody 2610 (antibody, V domains shown) VH: QVQLHQPGTSLVKPGASVKLSCKASGYSFSSYYMHWVKQRPGQGLEWIGTIHPSDSTTNCNQKFKGKATLTVDKSSRTAYMQLNSLTFEDSAVYYCANFVYWGQGTSVTVSS VL: DIVITQDELSNPVTSGDSVSISCRSSKSLLYKDGKTYLNWFLQRPGQSPQLLIYVVSTRASGVSDRFSGSGSGTDFTLEISRVKAEDVGVYYCQQLVEYPYTFGGGTKLEIK
EC50 [ng/mL]: 4.9
--
binder: antibody 2810 (antibody, V domains shown) VH: QVQLHQPGTSLVKPGASVKLSCKASGYSFSSYYMHWVKQRPGQGLEWIGTIHPSDSTTNYNQKFKGKATLTVDKSSRTAYMQLNSLTFEDSAVYYCANFVYWGQGTSVTVSS VL: DIVITQDELSNPVTSGDSVSISCRSSKSLLYKDGKTYLNWFLQRPGQSPQLLIYVVSTRASGVSDRFSGSGSGTDFTLEISRVKAEDVGVYYCQQLVEYPYTFGGGTKLEIK
EC50 [ng/mL]: 3.2
--
binder: antibody 2510 (antibody, V domains shown) VH: QVQLHQPGTSLVKPGASVKLSCKASGYNFSSYYMHWVKQRPGQGLEWIGTIHPSDSTTNYNQKFKGKATLTVDKSSRTAYMQLNSLTFEDSAVYYCANFVYWGQGTSVTVSS VL: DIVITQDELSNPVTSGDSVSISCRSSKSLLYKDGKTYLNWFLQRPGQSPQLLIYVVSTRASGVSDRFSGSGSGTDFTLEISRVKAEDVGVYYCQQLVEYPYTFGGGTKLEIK
EC50 [ng/mL]: 8.9

Origin of the recorded values: patent US20190100588A1
